- study target: Growth hormone secretagogue receptor type 1 (Homo sapiens, UniProt Q92847)
- Sequence (Q92847 whole entry): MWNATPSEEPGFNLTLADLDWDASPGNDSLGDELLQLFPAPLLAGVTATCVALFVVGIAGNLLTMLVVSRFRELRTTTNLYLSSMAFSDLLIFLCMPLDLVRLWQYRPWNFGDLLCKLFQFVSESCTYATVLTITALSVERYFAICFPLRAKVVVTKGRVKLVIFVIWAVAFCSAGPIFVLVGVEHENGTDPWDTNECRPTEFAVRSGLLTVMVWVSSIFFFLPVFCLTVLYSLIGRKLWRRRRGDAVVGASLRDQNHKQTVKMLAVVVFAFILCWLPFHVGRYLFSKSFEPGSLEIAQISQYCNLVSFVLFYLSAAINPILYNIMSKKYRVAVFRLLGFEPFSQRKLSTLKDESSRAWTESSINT
- test name: Antagonist activity at recombinant human GHSR1a expressed in HEK293 cells assessed as inhibition of ghrelin-induced intracellular calcium release incubated for 20 secs and measured after 2 mins by FLIPR assay
reported property: IC50 (nM)
Numbers only, in nM.

// known answers, use as guide
compound	reported property	output unit	value
Cc1ccc2c(c1)CCC2N1CCC(N(C)C(=O)N[C@@H](C)c2ccc(O)c(Cl)c2Cl)CC1 (stereo partly drawn)	IC50	nM	1170
CCN(C(=O)N[C@@H](C)c1ccc(C#CC2CC2)c(Cl)c1Cl)C1CCN(C2CCc3cc(-c4cc(C)ncn4)ccc32)CC1 (stereo partly drawn)	IC50	nM	2920
Cc1cc(-c2ccc3c(c2)CCC3N2CCC(N(C)C(=O)N[C@@H](C)c3ccc(C#CC4CC4)c(Cl)c3Cl)CC2)ncn1 (stereo partly drawn)	IC50	nM	80
C[C@H](NC(=O)N(C)C1CCN(C2CCc3cc(-c4ncccn4)ccc32)CC1)c1ccc(C#CC2CC2)c(Cl)c1Cl (stereo partly drawn)	IC50	nM	798

State recorded IC50 for all listed compounds.
1. COC(=O)c1ccc([C@H](C)NC(=O)N(C)C2CCN(C3CCc4cc(-c5cc(C)ncn5)ccc43)CC2)c(Cl)c1Cl (stereo partly drawn)
2. Cc1cc(-c2ccc3c(c2)CCC3N2CCC(N(C)C(=O)N[C@@H](C)c3ccc(C#CC4CC4)c(Cl)c3Cl)C2)ncn1 (stereo partly drawn)
3. C#Cc1ccc([C@H](C)NC(=O)N(C)C2CCN(C3CCc4cc(C)ccc43)CC2)c(Cl)c1Cl (stereo partly drawn)

303
148
106
